Target Under Test: T1, human immunoglobulin E (hIgE) (human, UniProt P01854-1 1-428)
T1 construct: also called human IgE; Native IgE (Abcam)
T1 sequence (P01854 whole entry): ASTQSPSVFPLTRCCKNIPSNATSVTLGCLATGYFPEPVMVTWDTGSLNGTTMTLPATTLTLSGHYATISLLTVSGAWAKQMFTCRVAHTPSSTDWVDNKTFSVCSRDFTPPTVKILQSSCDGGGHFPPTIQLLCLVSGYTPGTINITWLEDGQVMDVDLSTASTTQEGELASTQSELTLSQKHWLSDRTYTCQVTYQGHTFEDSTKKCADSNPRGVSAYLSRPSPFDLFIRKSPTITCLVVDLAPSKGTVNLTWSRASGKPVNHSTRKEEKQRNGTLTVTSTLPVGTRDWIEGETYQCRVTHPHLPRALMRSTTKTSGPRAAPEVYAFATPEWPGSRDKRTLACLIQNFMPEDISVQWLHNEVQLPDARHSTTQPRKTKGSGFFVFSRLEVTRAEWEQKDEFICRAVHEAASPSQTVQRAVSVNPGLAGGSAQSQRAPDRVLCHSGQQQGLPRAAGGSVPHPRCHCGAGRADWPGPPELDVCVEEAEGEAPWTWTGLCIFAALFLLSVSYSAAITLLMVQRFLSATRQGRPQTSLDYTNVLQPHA
Measurement Notes: SPR (Biacore) on hIgE
Threshold check on KD Ratio pH 5.5/pH 7.4: strictly below 6 is true (1); on or above 6 is false (0).

Consider the following illustrative entries.
Binder	Class Name
CL-2C mAb 31 (antibody, V domains shown, also called VK94H + VH58H100BH) VH: QVQLVQSGAEVMKPGSSVKVSCKASGYTFSWYWLEWVRQAPGHGLEWMGEIDPGTFTTHYNEKFKARVTFTADTSTSTAYMELSSLRSEDTAVYYCARFSHFSGSHYDYFDYWGQGTLVTVSS VL: EIVMTQSPATLSVSPGERATLSCRASQSIGTNIHWYQQKPGQAPRLLIYYASESISGIPARFSGSGSGTEFTLTISSLQSEDFAVYYCQQSWSHPTTFGGGTKVEIK	true (1)
CL-2C mAb 1 (antibody, V domains shown, also called CL-20 mAb 1; VK28H94H + VH58H100BH) VH: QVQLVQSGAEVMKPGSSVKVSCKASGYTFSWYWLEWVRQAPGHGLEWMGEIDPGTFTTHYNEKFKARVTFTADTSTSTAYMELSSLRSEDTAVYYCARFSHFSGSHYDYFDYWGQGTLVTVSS VL: EIVMTQSPATLSVSPGERATLSCRASQHIGTNIHWYQQKPGQAPRLLIYYASESISGIPARFSGSGSGTEFTLTISSLQSEDFAVYYCQQSWSHPTTFGGGTKVEIK	true (1)
CL-2C mAb 20 (antibody, V domains shown, also called VK50H92D94H + VHWT) VH: QVQLVQSGAEVMKPGSSVKVSCKASGYTFSWYWLEWVRQAPGHGLEWMGEIDPGTFTTNYNEKFKARVTFTADTSTSTAYMELSSLRSEDTAVYYCARFSHFSGSNYDYFDYWGQGTLVTVSS VL: EIVMTQSPATLSVSPGERATLSCRASQSIGTNIHWYQQKPGQAPRLLIYHASESISGIPARFSGSGSGTEFTLTISSLQSEDFAVYYCQQSDSHPTTFGGGTKVEIK	true (1)
CL-2C mAb 34 (antibody, V domains shown, also called VK94H + VH33H100AH) VH: QVQLVQSGAEVMKPGSSVKVSCKASGYTFSWYHLEWVRQAPGHGLEWMGEIDPGTFTTNYNEKFKARVTFTADTSTSTAYMELSSLRSEDTAVYYCARFSHFSGHNYDYFDYWGQGTLVTVSS VL: EIVMTQSPATLSVSPGERATLSCRASQSIGTNIHWYQQKPGQAPRLLIYYASESISGIPARFSGSGSGTEFTLTISSLQSEDFAVYYCQQSWSHPTTFGGGTKVEIK	true (1)
CL-2C mAb 2 (antibody, V domains shown, also called CL-20 mAb 2; VK28H94H + VH33H100CH) VH: QVQLVQSGAEVMKPGSSVKVSCKASGYTFSWYHLEWVRQAPGHGLEWMGEIDPGTFTTNYNEKFKARVTFTADTSTSTAYMELSSLRSEDTAVYYCARFSHFSGSNHDYFDYWGQGTLVTVSS VL: EIVMTQSPATLSVSPGERATLSCRASQHIGTNIHWYQQKPGQAPRLLIYYASESISGIPARFSGSGSGTEFTLTISSLQSEDFAVYYCQQSWSHPTTFGGGTKVEIK	false (0)
CL-2C mAb 38 (antibody, V domains shown, also called VKWT + VH33H100BH) VH: QVQLVQSGAEVMKPGSSVKVSCKASGYTFSWYHLEWVRQAPGHGLEWMGEIDPGTFTTNYNEKFKARVTFTADTSTSTAYMELSSLRSEDTAVYYCARFSHFSGSHYDYFDYWGQGTLVTVSS VL: EIVMTQSPATLSVSPGERATLSCRASQSIGTNIHWYQQKPGQAPRLLIYYASESISGIPARFSGSGSGTEFTLTISSLQSEDFAVYYCQQSWSWPTTFGGGTKVEIK	false (0)

q: Determine whether this binder shows KD Ratio pH 5.5/pH 7.4 lower than 6 (ties excluded): CL-2C mAb 10 (antibody, V domains shown, also called VK50H92D89H + VHWT) VH: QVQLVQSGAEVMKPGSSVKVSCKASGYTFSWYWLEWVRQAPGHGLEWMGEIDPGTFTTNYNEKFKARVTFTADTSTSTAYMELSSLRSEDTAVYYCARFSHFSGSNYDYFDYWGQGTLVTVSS VL: EIVMTQSPATLSVSPGERATLSCRASQSIGTNIHWYQQKPGQAPRLLIYHASESISGIPARFSGSGSGTEFTLTISSLQSEDFAVYYCHQSDSWPTTFGGGTKVEIK
a: true (1)

q: Determine whether this binder shows KD Ratio pH 5.5/pH 7.4 lower than 6 (ties excluded): CL-2C mAb 13 (antibody, V domains shown, also called VK50H94H + VH33H100BH) VH: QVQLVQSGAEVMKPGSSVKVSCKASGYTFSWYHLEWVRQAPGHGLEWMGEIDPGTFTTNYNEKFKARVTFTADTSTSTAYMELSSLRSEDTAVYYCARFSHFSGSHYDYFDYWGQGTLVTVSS VL: EIVMTQSPATLSVSPGERATLSCRASQSIGTNIHWYQQKPGQAPRLLIYHASESISGIPARFSGSGSGTEFTLTISSLQSEDFAVYYCQQSWSHPTTFGGGTKVEIK
a: false (0)

q: Determine whether this binder shows KD Ratio pH 5.5/pH 7.4 lower than 6 (ties excluded): CL-2C mAb 30 (antibody, V domains shown, also called VK50H + VHWT) VH: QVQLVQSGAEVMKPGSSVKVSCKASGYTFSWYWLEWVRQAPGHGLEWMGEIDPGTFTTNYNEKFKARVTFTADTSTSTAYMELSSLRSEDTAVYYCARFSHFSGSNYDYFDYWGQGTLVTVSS VL: EIVMTQSPATLSVSPGERATLSCRASQSIGTNIHWYQQKPGQAPRLLIYHASESISGIPARFSGSGSGTEFTLTISSLQSEDFAVYYCQQSWSWPTTFGGGTKVEIK
a: true (1)

q: Determine whether this binder shows KD Ratio pH 5.5/pH 7.4 lower than 6 (ties excluded): CL-2C mAb 19 (antibody, V domains shown, also called VK50H92D94H + VH33H100AH) VH: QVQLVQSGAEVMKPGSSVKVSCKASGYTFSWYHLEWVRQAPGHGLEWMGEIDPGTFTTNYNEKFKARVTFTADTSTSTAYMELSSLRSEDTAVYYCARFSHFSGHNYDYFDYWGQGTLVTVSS VL: EIVMTQSPATLSVSPGERATLSCRASQSIGTNIHWYQQKPGQAPRLLIYHASESISGIPARFSGSGSGTEFTLTISSLQSEDFAVYYCQQSDSHPTTFGGGTKVEIK
a: true (1)
